system: KB-3-1 human epidermoid carcinoma; assay: In vitro cytotoxicity, Microculture Tetrazolium Assay, KB-3-1; type: cell-based; details: KB-3-1, 4 days incubation; read-out: IC50 (concentration which inhibits proliferation of the treated cells by 50%)
pIC50: −log10 of the molar value.
Attribute: pIC50
METRIC: pIC50

- COc1cc2c(c3c1c(=O)c1c4ccccc4ccc1n3C)[C@@H](OC(C)=O)[C@@H](OC(C)=O)C(C)(C)O2 (racemic): 6.85
- COc1cc2c(c3c1c(=O)c1c4ccccc4ccc1n3C)[C@H]1OC(=O)O[C@H]1C(C)(C)O2 (racemic): 7.82
